target: P0AEU7; experiment: SEC-MALS; Skp variants alone, elution concentration ≃80 μM, 25°C, 20 mM MES pH 6.5, 150 mM NaCl; monomer to trimer
Parameter Monomer (%) at c ≃ 80 μM: see the listing below.
// return numeric value only (unit: %, not printed)

A selection of reference data follows.
>  <Protein>
Skp(A103L) (natural protein, E. coli, UniProt P0AEU7 21-161, looked up, Monomer-trimer equilibrium essentially as the wild type; source: E. coli BL21-(λ DE3)-Lemo, purified (Ni-NTA, SEC); not shown: His6, N-terminal, kept) ADKIAIVNMGSLFQQVAQKTGVSNTLENEFKGRASELQRMETDLQAKMKKLQSMKAGSDRTKLEKDVMAQRQTFAQKAQAFEQDRARRSNEERGKLVTRIQTLVKSVANSQDIDLVVDANAVAYNSSDVKDITADVLKQVK

>  <Monomer (%) at c ≃ 80 μM>
6

$$$$
>  <Protein>
Skp(WT), seventeen kilodalton protein, periplasmic chaperone of Escherichia coli (natural protein, E. coli, UniProt P0AEU7 21-161, looked up, Stands in a monomer-trimer equilibrium; the active form is the homotrimer; The thrombin-cleavable His6-tag of pET28b was not cleaved; Isotope-labelled for NMR in some samples; source: E. coli BL21-(λ DE3)-Lemo, purified (Ni-NTA, SEC); not shown: His6, N-terminal, kept) ADKIAIVNMGSLFQQVAQKTGVSNTLENEFKGRASELQRMETDLQAKMKKLQSMKAGSDRTKLEKDVMAQRQTFAQKAQAFEQDRARRSNEERGKLVTRIQTAVKSVANSQDIDLVVDANAVAYNSSDVKDITADVLKQVK

>  <Monomer (%) at c ≃ 80 μM>
3

$$$$
>  <Protein>
Skp(A103R) (natural protein, E. coli, UniProt P0AEU7 21-161, looked up, Monomer-trimer equilibrium shifted toward the monomer; source: E. coli BL21-(λ DE3)-Lemo, purified (Ni-NTA, SEC); not shown: His6, N-terminal, kept) ADKIAIVNMGSLFQQVAQKTGVSNTLENEFKGRASELQRMETDLQAKMKKLQSMKAGSDRTKLEKDVMAQRQTFAQKAQAFEQDRARRSNEERGKLVTRIQTRVKSVANSQDIDLVVDANAVAYNSSDVKDITADVLKQVK

>  <Monomer (%) at c ≃ 80 μM>
14

$$$$

For record Skp(A108L) (natural protein, E. coli, UniProt P0AEU7 21-161, looked up, Monomer-trimer equilibrium strongly shifted toward the monomer; also called Skp(108L); source: E. coli BL21-(λ DE3)-Lemo, purified (Ni-NTA, SEC); not shown: His6, N-terminal, kept) ADKIAIVNMGSLFQQVAQKTGVSNTLENEFKGRASELQRMETDLQAKMKKLQSMKAGSDRTKLEKDVMAQRQTFAQKAQAFEQDRARRSNEERGKLVTRIQTAVKSVLNSQDIDLVVDANAVAYNSSDVKDITADVLKQVK the listed Monomer (%) at c ≃ 80 μM is 53
